Experiment Description: Induction of neurite outgrowth in rat hippocampal neurons assessed as neurite total length at 62.5 ng/ml after 48 hrs relative to control
Format: functional, Hippocampal neurone
Readout: Activity (%)
Numbers only, in %.

CC1CCC(CN2C(=S)N(CCCC[C@H]3CNC(C4CCCC4)=N3)C[C@H]2c2ccccc2)CC1 (stereo not given in full) ... 305.6
CC1CCC(CN2C(=S)N(CCCC[C@H]3CNC(C4CCCC4)=N3)C[C@H]2C)CC1 (stereo not given in full) ... 168.1

For every listed record, write down its Activity.
1. CCC(C)CC1=N[C@@H](CCCCN2C[C@@H](c3ccccc3)N(CCCC3CCCCC3)C2=S)CN1 (stereo not given in full)
2. S=C1N(CCCC[C@H]2CNC(CCCCc3ccccc3)=N2)C[C@@H](c2ccccc2)N1CCCC1CCCCC1
3. CC(C)CCCCN1C(=S)N(CCCC[C@H]2CNC(CC3CCCC3)=N2)C[C@H]1c1ccccc1

1: 257.2; 2: 251.6; 3: 279.6
